Target: Focal adhesion kinase 1 (Homo sapiens)
Assay: small-molecule microarray binders of FAK, primary screen, biochemical, 635/667 nm fluorescence, BSA, DTT (AID 1130);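 further: composite of spot emission at 667 nm and signal to noise over triplicate slides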
Conditions: PTK2 binding, 635 nm fluorescence, higher = more signal
MEASUREMENT TYPE: composite z-score
Would you mind answering with just the numeric figure?

| COMPOUND | composite z-score |
| --- | --- |
| O=C1[C@H]2[C@H]3[C@H](O)[C@H](O)CC(=NO[C@@H]4O[C@H](CO)[C@@H](O)[C@H](O)[C@H]4O)[C@H]3CC[C@H]2C(=O)N1Cc1ccc2c(c1)OCO2 | 0.0254 |
| COC(=O)[C@@]1(Cc2ccc(OC)cc2)[C@H]2c3cc(C(=O)N4CCCC4)n(Cc4cc(F)c(F)c(F)c4)c3C[C@H]2CN1C(=O)c1ccccc1 | 0.59 |
| CC(C)CON=C1C[C@@H](O)[C@@H](O)[C@@H]2[C@@H]3C(=O)N(Cc4ccccc4)C(=O)[C@@H]3CC[C@@H]12 | 0.528 |
| COC(=O)[C@H](C)NC(=O)[C@@H](C)CO | 0.48 |
| COc1ccc(O[C@H]2C=C[C@@H](c3ccccc3)O[C@@H]2COC(=O)CCC(C)=NOCC[C@@H]2C=C[C@H](OC(C)=O)[C@@H](COC(C)=O)O2)cc1 | 0.151 |
| Cc1cc2c(c(=O)o1)[C@H](O)[C@H]1O[C@H]1C2=O | -0.21 |
| CC(C)CN1CCc2nc(-c3ccccc3)c3c(c2CC1)CO[C@@H](C)C3 | 0.101 |
| CC(CCN1CCCCc2nc(C)c(C)cc21)=NOC(C)CN1CCCc2nc(C)c(C)cc21 (stereo not given) | 0.671 |
| CCCC[C@@H](O)C1=C(C)C[C@H]2C(=O)N(Cc3ccccc3)C(=O)[C@H]2[C@H]1CO | -0.0945 |
| CCCCc1nc2c(c3c1C[C@H](C)OC3)CN(CCC(C)C)CC2 | 0.0171 |

Recorded result, CC(C)CON=C1[C@H]2CCn3c(=O)n(-c4ccccc4)c(=O)n3[C@H]2[C@H](O)[C@@H]2O[C@H]12 , composite z-score: 0.164

composite z-score for CCOC(=O)C[C@H]1[C@H](OC(=O)c2ccc(C(=O)c3ccccc3)cc2)[C@@H](NC(=O)c2ccc(-c3ccccc3)cc2)c2cc(OCCCO)ccc2N1C(=O)c1ccc2ccccc2n1 is 0.0723

So, O=C1O[C@@H](c2ccccc2)[C@@H](c2ccccc2)N2[C@@H](c3ccc(O)cc3)[C@]3(C(=O)Nc4ccccc43)[C@@H](C(=O)O)[C@H]12 ? Its composite z-score was 0.49

Briefly, composite z-score measured for COC(=O)c1c(CC[C@@H](CO)NC(=O)N[C@H](Cc2ccccc2)Cn2cc(-c3ccccc3N)nn2)oc(C(C)=O)c1C(=O)OC : -0.422

// N#Cc1ccc(NN2C(C(O)c3cccc4ccccc34)C=CC3C(=O)N(c4ccccc4)C(=O)C32)cc1 (stereo not given) : composite z-score value = 0.413

Entry source: PubChem BioAssay
